Each recorded value in this set is attributed to ChEMBL document CHEMBL6120945.

# testedOn: Cathepsin L2 (Homo sapiens, UniProt O60911)
# Sequence (O60911 whole entry): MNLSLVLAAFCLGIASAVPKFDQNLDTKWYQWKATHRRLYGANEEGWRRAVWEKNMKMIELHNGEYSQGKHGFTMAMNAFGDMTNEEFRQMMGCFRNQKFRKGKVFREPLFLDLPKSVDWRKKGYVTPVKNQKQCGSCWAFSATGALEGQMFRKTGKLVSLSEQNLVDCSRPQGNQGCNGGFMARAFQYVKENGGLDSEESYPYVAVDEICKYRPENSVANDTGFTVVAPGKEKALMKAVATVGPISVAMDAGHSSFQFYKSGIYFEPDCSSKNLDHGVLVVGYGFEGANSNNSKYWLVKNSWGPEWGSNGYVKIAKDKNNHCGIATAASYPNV
pKi: −log10 of the molar value.

| querySmiles | pKi |
| --- | --- |
| CC(C)C[C@H](NC(=O)/C=C/c1ccccc1)C(=O)N[C@H](C=O)Cc1ccccc1 | 8.65 |

* * *

# testSummary: Inhibition of human recombinant Cathepsin L-like protease using Z-FR-AMC as substrate preincubated for 30 mins followed by substrate addition and measured after 1.5 hrs by fluorescence based analysis
pIC50: −log10 of the molar value. Where a SMILES comes first, the peptide text is derived from it. [ ]: non-standard residue; d: D form. The star is where a group is joined. ξ: configuration not given here. ξF = NC(Cc1ccccc1)C(=O)O; Cbz = O=C(OCc1ccccc1)*
Item-by-item account of pIC50
assayReadout: pIC50

| compound | limitOperator | observed |
| --- | --- | --- |
| C#CCCCCOc1ccc(/C=C/C(=O)N[C@@H](CC(C)C)C(=O)N[C@H](C=O)Cc2ccccc2)cc1 | = | 7.39 |
| CC(C)C[C@H](NC(=O)c1ccncc1)C(=O)N[C@H](C=O)Cc1ccccc1 | = | 8.07 |
| CC(C)C[C@H](NC(=O)c1cc2ccccc2[nH]1)C(=O)N[C@H](C=O)Cc1ccccc1 | = | 7.99 |
| O=C[C@H](Cc1ccccc1)NC(=O)[C@H](Cc1ccc(Br)cc1)NC(=O)/C=C/c1ccccc1 | = | 7.94 |
| O=C[C@H](Cc1ccccc1)NC(=O)[C@H](Cc1cccc(F)c1)NC(=O)/C=C/c1ccccc1 | = | 8.18 |
| CC(C)C[C@H](NC(=O)/C=C/c1ccccc1)C(=O)N[C@H](C=O)CCc1ccccc1 | = | 7.59 |
| CC(C)[C@H](NC(=O)OCc1ccccc1)C(=O)NC(C=O)Cc1ccccc1 (stereo partly drawn) (Cbz-Val-[ξF]-aldehyde) | = | 4.70 |
| O=C[C@H](Cc1ccccc1)NC(=O)[C@H](Cc1ccc(F)cc1)NC(=O)/C=C/c1ccccc1 | = | 8.18 |
| CC(C)C[C@H](NC(=O)c1ccsc1)C(=O)N[C@H](C=O)Cc1ccccc1 | = | 8.09 |
| CC(C)C[C@H](NC(=O)/C=C/c1ccccc1)C(=O)N[C@H](C=O)CC1CCCCC1 | = | 7.32 |
| COC(=O)/C=C/[C@H](Cc1ccccc1)NC(=O)[C@H](CC(C)C)NC(=O)/C=C/c1ccccc1 | < | 6.00 |
| CC(C)C[C@H](NC(=O)C1CCOCC1)C(=O)N[C@H](C=O)Cc1ccccc1 | = | 7.69 |
| CC(C)C[C@H](NC(=O)/C=C/c1ccccc1)C(=O)N[C@H](C=O)Cc1ccccc1F | = | 7.63 |
| CC(C)C[C@H](NC(=O)/C=C/c1ccc(F)cc1)C(=O)N[C@H](C=O)Cc1ccccc1 | = | 7.70 |
| CC(C)C[C@H](NC(=O)/C=C/c1ccccc1Cl)C(=O)N[C@H](C=O)Cc1ccccc1 | = | 8.02 |
| CC(C)C[C@H](NC(=O)c1ccc2ccccc2c1)C(=O)N[C@H](C=O)Cc1ccccc1 | = | 8.55 |
| CC(C)C[C@H](NC(=O)/C=C/c1ccccc1)C(=O)N[C@H](C=O)Cc1cccc(F)c1 | = | 6.79 |
| CC(C)(C)[C@H](NC(=O)/C=C/c1ccccc1)C(=O)N[C@H](C=O)Cc1ccccc1 | = | 6.74 |
